Just for reference, patent US7282522B2 is where these values come from.

# Test system: collagenase
# Experimental Protocol: Inhibition of collagenase expression in human fibroblasts (ELISA kit)
# Format: cell-based
# Details: 10^−4M, 24 hours, serum-free medium, relative to control group = 100
Collagenase expression (%) of 80% or higher: met. Under 80%: not met.

Query string: Textbook exercise: given the entry CC(C)(C)c1ccc(C(=O)Nc2ccc(C(=O)NO)cc2)cc1 [Example 8] , state whether its Collagenase expression (%) is greater than or equal to 80%.
Result string: met

Query string: Determine whether measured Collagenase expression (%) meets or exceeds 80% for CC1=C(/C=C/C(C)=C/C=C/C(C)=C/C(=O)O)C(C)(C)CCC1 [Retinoic acid, retinoic acid, reference compound]
Result string: not met

Query string: Determine whether measured Collagenase expression (%) meets or exceeds 80% for CCCc1ccc(NC(=O)c2ccc(C(=O)NO)cc2)cc1 [Example 38]
Result string: met

Query string: Is it the case that Cc1ccc(C(=O)Nc2ccc(C(=O)NO)cc2)cc1 [Example 2] has Collagenase expression (%) reaching or exceeding 80%?
Result string: not met

Query string: Tell me whether Collagenase expression (%) is at least 80% here: CCCCc1ccc(NC(=O)c2ccc(C(=O)NO)cc2)cc1 [Example 40]
Result string: not met

Query string: Is Collagenase expression (%) at least 80%? Consider Cc1cccc(C(=O)N(C)c2ccc(C(=O)NO)cc2)c1 [Example 14]
Result string: not met

Query string: Please indicate if the recorded Collagenase expression (%) for Cc1cccc(NC(=O)c2ccc(C(=O)NO)cc2)c1 [Example 36] meets or exceeds 80%.
Result string: not met

Query string: Hi team, for CC(C)c1ccc(C(=O)Nc2ccc(CC(=O)NO)cc2)cc1 [Example 28] , is the recorded Collagenase expression (%) at or above 80%?
Result string: not met

Query string: Assess whether reported Collagenase expression (%) for CC(C)c1ccc(C(=O)Nc2ccc(C(=O)NO)cc2)cc1 [Example 6] sits at 80% or higher.
Result string: met

Query string: Answer whether Collagenase expression (%) of CCc1ccc(NC(=O)c2ccc(C(=O)NO)cc2)cc1 [Example 37] is greater than or equal to 80%.
Result string: not met

* * *

# Target Under Test: RARα (Homo sapiens)
# Construct: expressed in transfected cells; host or cells: CV-1 cells (ATCC)
# Sequence (P10276 1-462): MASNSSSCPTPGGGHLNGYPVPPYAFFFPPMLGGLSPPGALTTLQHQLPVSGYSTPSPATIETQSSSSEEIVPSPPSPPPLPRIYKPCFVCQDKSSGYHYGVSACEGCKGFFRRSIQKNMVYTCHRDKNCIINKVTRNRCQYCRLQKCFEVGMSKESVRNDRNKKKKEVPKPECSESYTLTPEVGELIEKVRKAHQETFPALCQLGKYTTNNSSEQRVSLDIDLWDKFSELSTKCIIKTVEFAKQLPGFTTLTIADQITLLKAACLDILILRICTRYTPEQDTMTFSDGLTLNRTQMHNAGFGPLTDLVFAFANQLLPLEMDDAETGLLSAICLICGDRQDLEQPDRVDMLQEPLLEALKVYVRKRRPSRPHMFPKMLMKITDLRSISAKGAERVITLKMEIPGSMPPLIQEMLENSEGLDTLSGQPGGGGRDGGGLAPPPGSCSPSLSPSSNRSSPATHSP
# Experimental Protocol: RARE-luciferase reporter assay in transfected CV-1 cells (affinity to retinoic acid receptor), RARα
# Type: cell-based
# Details: treated 24 hours at final concentration 10^−4M, control group 1000
Give Luciferase activity RARα for every item shown.

Query string: Would you mind telling me what Luciferase activity RARα value was observed for CN(O)C(=O)c1ccc(NC(=O)C23CC4CC(CC(C4)C2)C3)cc1 ?
Result string: 11600

Query string: I am curious: what Luciferase activity RARα value has been reported for Cc1cccc(N(C)C(=O)c2ccc(C(=O)NO)cc2)c1 ?
Result string: 12200

Query string: Record request: Luciferase activity RARα value, item CN(C(=O)c1ccc(C(=O)NO)cc1)c1ccc(C(C)(C)C)cc1
Result string: 12400

Query string: Returns the measured Luciferase activity RARα for the input compound. Input: CN(C(=O)c1ccc(C(=O)NO)cc1)C12CC3CC(CC(C3)C1)C2
Result string: 22500
